- Target or system: Calcium-dependent protein kinase 1 (Plasmodium falciparum (isolate 3D7)) (UniProt P62344)
- Sequence (P62344 whole entry, looked up): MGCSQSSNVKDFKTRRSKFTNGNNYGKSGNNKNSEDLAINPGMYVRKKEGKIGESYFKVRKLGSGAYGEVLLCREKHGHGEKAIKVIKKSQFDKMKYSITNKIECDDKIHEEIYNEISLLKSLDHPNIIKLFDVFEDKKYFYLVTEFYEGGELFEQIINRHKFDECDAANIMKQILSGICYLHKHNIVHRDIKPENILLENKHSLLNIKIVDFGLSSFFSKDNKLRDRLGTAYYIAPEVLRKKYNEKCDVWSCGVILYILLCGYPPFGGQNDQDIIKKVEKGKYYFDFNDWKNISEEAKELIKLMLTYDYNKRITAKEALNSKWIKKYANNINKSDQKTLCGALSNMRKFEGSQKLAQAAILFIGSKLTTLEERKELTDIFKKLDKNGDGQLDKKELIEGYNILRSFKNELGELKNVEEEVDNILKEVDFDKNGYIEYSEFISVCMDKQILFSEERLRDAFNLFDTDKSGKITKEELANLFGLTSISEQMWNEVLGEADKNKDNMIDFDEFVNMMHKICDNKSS
- Test details: PfCDPK1 kinase inhibitors, biochemical, TCAMS library (AID 1159585);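 further: inhibitors leave more ATP so luminescence rises with inhibition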
- Assay setup: recombinant PfCDPK1, Kinase-Glo ATP depletion luminescence
Potency and affinity values are given separately. Activity calls are given as the source filed them. Cut-off not given; nearly all actives show IC50 up to about 0.98 µM.
Parameter: outcome

stdin: Supply recorded outcome for CN(C)CCC1CCCc2ccc(NC(=O)Nc3ccc(-c4ccncc4)c4ccccc34)cc21 (centres undefined) here.
stdout: inactive

stdin: Supply recorded outcome for O=[N+]([O-])c1cccc(C=NNc2ccnc3cc(F)ccc23)c1 here.
stdout: inactive

stdin: Supply recorded outcome for CC(C)CNCc1cccc(-c2ccc(CN(CCCN3CCN(C)CC3)C(=O)/C=C/c3ccccc3)cc2)c1 here.
stdout: inactive

stdin: Supply recorded outcome for CCC1CN2CCc3c([nH]c4ccccc34)C2CC1CC1=NCCc2c1[nH]c1ccccc21 (centres undefined) here.
stdout: inactive

stdin: Supply recorded outcome for CCN(CCCN1CCCCC1)c1cc(C)nc(Nc2ccc(C)cc2C)n1 here.
stdout: inactive

stdin: Supply recorded outcome for COc1ccc(-c2nonc2NC(=O)c2cccc(C)c2)cc1OC here.
stdout: inactive

stdin: Supply recorded outcome for COc1ccc(-c2ccc(NC(=O)c3ccc(C#N)cc3)c(F)c2)cc1CN(C)CCN(C)C here.
stdout: inactive

stdin: Supply recorded outcome for Cc1cccc2[nH]c(-c3cccc(-c4cccc(CNCCc5cccn5C)c4)c3)nc12 here.
stdout: inactive

New cases:
stdin: Supply recorded outcome for O=c1c2ccc(F)cc2sn1-c1ccc(Cl)cc1 here.
stdout: inactive

stdin: Supply recorded outcome for CCN(CC)CCN(Cc1ccc(-c2ccc(C(F)(F)F)cc2)cc1)C(=O)Cn1nc(-c2ccc(C(F)(F)F)cc2)ccc1=O here.
stdout: inactive

---

- Target or system: Plasmodium falciparum protein kinase 6 (PK6, PF3D7_1337100) (UniProt Q8IDW1)
- Test details: PfPK6 kinase inhibitors, biochemical, TCAMS library (AID 1159586)
- Assay setup: recombinant PfPK6, Kinase-Glo ATP depletion luminescence
Potency and affinity values are given separately. The source made the active and inactive calls. No rule for the calls is given here.
Parameter: outcome

Some solved entries appear below for comparison.
stdin: Supply recorded outcome for Cc1cccc2[nH]c(-c3cccc(-c4cccc(C(=O)NCc5nccn5C)c4)c3)nc12 here.
stdout: inactive

stdin: Supply recorded outcome for CCc1ccc(OCCCON2C(N)=NC(N)=NC2(C)C)cc1 here.
stdout: inactive

stdin: Supply recorded outcome for CC1(C)CCC(C)(C)c2c1ccc(C1CCN(CCCCNC(=O)c3ccc(-c4ccc(C#N)cc4)cc3)CC1)c2O here.
stdout: inactive

stdin: Supply recorded outcome for CCOC(=O)N/N=C/[C@H](CCc1ccccc1)NC(=O)[C@H](CC(C)C)NC(=O)c1cc2cccc(OC)c2o1 here.
stdout: inactive

stdin: Supply recorded outcome for c1ccc(CCNc2ccnc(Nc3ccc4cn[nH]c4c3)n2)cc1 here.
stdout: inactive

Attention now turns to another entry.
stdin: Supply recorded outcome for COc1ccc(C2C(C(=O)OC3CCCC3)=C(C)NC3=C2C(=O)CCC3)cc1Br (stereo not given) here.
stdout: inactive

---

- Test details: antimalarial activity against Dd2 strain (AID 2302)
- Assay setup: P. falciparum Dd2 in RBCs, LDH growth readout, 72 h; at 2 µM; hits give high values
Record rule met whenever growth inhibition is at 80% or higher; record rule not met when lower.

stdin: // inclusive: growth inhibition at least 80%? input: COc1cc2c(cc1OC)C(c1ccc(Br)cc1)CN(C)CC2 (stereo not given)
stdout: rule not met

stdin: // inclusive: growth inhibition at least 80%? input: COc1ccc(-c2cccc(NC(=O)c3ccc(C#N)cc3)c2)cc1CN1CCN(C)CC1
stdout: rule not met

stdin: // inclusive: growth inhibition at least 80%? input: Cc1ccc(NC(=O)c2ccc(N3CCN(c4ccncc4)CC3)cn2)cc1F
stdout: rule not met

stdin: // inclusive: growth inhibition at least 80%? input: COCCCNC(=O)c1ccc(O)c(-c2cc(Cl)cc(Cl)c2)c1
stdout: rule not met

stdin: // inclusive: growth inhibition at least 80%? input: CC(C)CNCc1cccc(-c2ccc(CN(CCCN3CCN(C)CC3)C(=O)/C=C/c3ccccc3)cc2)c1
stdout: rule met

stdin: // inclusive: growth inhibition at least 80%? input: Cc1ccc(C)c(S(=O)(=O)Nc2ccc(Br)cc2C(=O)Nc2cccc(C(F)(F)F)c2)c1
stdout: rule met

stdin: // inclusive: growth inhibition at least 80%? input: CCN(CC)CCN(Cc1ccc(-c2ccc(C(F)(F)F)cc2)cc1)C(=O)Cn1c(CCc2cccc(F)c2F)nc(=O)c2cccnc21
stdout: rule met

stdin: // inclusive: growth inhibition at least 80%? input: CN(C)CCN(Cc1ccccc1-c1ccc(CNCCc2ccccc2)cc1)C(=O)NC1CCCCC1
stdout: rule met

stdin: // inclusive: growth inhibition at least 80%? input: CCCCc1cc(NCc2ccncc2)nc(Nc2cccc(OC)c2)n1
stdout: rule not met

stdin: // inclusive: growth inhibition at least 80%? input: Cc1cc(N2CCCC2)nc(Nc2ccc(NC(=O)c3ccc4c(c3)OCO4)cc2)n1
stdout: rule not met

stdin: // inclusive: growth inhibition at least 80%? input: Cc1ccc(Nc2nc(C)cc(NC3CCN(C)CC3)n2)cc1
stdout: rule not met

stdin: // inclusive: growth inhibition at least 80%? input: CN(Cc1cccc(O)c1)C1CCN(c2cc(NC(=O)c3ccc(F)cc3)ccn2)CC1
stdout: rule not met

stdin: // inclusive: growth inhibition at least 80%? input: CCN(C(=O)NC)[C@@H]1c2cc(C#N)ccc2OC(C)(C)[C@H]1O
stdout: rule not met

stdin: // inclusive: growth inhibition at least 80%? input: C=CCn1c(Cc2ccccc2)nnc1Sc1ccc(C#N)c([N+](=O)[O-])c1
stdout: rule not met

stdin: // inclusive: growth inhibition at least 80%? input: NC1CCCN(Cc2ccc(-c3cccc(-c4nc5ccccc5[nH]4)c3)cc2)C1 (stereo not given)
stdout: rule not met

stdin: // inclusive: growth inhibition at least 80%? input: O=c1ccc2ccc(F)c3c2n1CC3CN1CCC(NCc2cccc(-c3cccs3)c2)CC1 (stereo not given)
stdout: rule not met

stdin: // inclusive: growth inhibition at least 80%? input: O=C(/C=C/c1c(Cl)cccc1Cl)NC1CCC(CN2CCC(c3c[nH]c4ccncc34)CC2)CC1 (stereo not given)
stdout: rule met

stdin: // inclusive: growth inhibition at least 80%? input: Cc1cc2nc(-c3ccc(C(=O)NCc4ccc(Cl)c(Cl)c4)cc3)[nH]c2cc1C
stdout: rule met

stdin: // inclusive: growth inhibition at least 80%? input: CCN(CCNC(=O)Nc1cc(C(F)(F)F)cc(C(F)(F)F)c1)c1cccc(C)c1
stdout: rule met
